The binders listed here are annotated with their EC50 of hC3 cleavage.
Biological target: plasma purified human complement protein C3 (human) (UniProt P01024)
Sequence (P01024 23-667, chain 1 of 2): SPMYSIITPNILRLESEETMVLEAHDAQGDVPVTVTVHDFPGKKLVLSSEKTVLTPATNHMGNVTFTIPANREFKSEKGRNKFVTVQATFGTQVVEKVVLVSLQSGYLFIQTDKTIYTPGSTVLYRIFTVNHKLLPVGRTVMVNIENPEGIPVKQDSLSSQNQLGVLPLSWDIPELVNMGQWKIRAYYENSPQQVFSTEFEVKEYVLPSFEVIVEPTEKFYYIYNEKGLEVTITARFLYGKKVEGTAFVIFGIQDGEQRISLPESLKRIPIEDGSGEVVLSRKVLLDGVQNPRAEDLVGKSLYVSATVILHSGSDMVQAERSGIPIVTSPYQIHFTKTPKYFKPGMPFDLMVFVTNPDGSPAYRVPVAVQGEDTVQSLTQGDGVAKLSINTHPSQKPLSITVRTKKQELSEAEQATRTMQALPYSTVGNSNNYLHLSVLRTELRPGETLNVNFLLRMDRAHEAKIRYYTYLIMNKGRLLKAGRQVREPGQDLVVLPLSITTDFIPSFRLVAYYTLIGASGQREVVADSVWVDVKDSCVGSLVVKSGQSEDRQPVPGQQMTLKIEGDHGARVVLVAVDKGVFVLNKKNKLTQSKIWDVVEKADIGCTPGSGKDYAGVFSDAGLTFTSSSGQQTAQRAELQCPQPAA
Sequence (P01024 672-1663, chain 2 of 2): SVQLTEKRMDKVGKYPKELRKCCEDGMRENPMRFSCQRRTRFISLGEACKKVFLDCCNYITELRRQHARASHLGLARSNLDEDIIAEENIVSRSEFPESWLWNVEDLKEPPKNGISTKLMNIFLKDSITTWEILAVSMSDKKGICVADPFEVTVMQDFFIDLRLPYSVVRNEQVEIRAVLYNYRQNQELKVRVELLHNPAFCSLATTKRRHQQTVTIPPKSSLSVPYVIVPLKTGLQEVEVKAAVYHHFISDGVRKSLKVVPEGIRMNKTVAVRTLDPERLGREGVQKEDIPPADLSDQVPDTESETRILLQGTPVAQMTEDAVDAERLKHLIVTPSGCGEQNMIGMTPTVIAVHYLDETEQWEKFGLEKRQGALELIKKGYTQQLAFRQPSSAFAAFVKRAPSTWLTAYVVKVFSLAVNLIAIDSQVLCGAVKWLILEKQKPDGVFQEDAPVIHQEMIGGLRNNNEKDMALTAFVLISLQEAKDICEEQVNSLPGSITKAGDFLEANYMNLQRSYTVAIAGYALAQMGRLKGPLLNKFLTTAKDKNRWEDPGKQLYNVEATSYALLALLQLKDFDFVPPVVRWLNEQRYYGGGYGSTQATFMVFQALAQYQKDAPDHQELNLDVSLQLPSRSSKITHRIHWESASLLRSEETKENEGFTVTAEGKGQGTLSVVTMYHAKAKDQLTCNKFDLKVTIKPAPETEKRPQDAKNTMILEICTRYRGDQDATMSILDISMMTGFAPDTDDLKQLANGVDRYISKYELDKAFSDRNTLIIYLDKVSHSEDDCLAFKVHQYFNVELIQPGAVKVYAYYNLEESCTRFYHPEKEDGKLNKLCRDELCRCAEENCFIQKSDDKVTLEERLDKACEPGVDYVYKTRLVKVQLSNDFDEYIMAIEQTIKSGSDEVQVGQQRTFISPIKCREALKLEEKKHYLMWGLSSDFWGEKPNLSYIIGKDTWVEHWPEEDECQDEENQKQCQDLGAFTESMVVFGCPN
Test: cell-based or functional assay
Could you give me the number in nM? Just the number is fine.

In the examples that follow, each entry is paired with its recorded EC50 of hC3 cleavage.
BINDER | DATA_VALUE
MTSP-1 Q38H/I41A/F97T/ins97aE/T98G/F99L/C122S/Q175L/Q192G (enzyme) VVGGTDADEGEWPWQVSLHALGHGHACGASLISPNWLVSAAHCYIDDRGFRYSDPTQWTAFLGLHDQSQRSAPGVQERRLKRIISHPFFNDTEGLDYDIALLELEKPAEYSSMVRPISLPDASHVFPAGKAIWVTGWGHTQYGGTGALILQKGEIRVINQTTCENLLPQLITPRMMCVGFLSGGVDSCGGDSGGPLSSVEADGRIFQAGVVSWGDGCAQRNKPGVYTRLPLFRDWIKENTGV | 3.9
MTSP-1 Q38H/I41S/D60bT/F60eS/Y60gW/D96V/F97G/ins97aV/T98P/F99L/C122S/G151H/Q175L/Q192D (enzyme) VVGGTDADEGEWPWQVSLHALGHGHSCGASLISPNWLVSAAHCYIDTRGSRWSDPTQWTAFLGLHDQSQRSAPGVQERRLKRIISHPFFNVGVPLDYDIALLELEKPAEYSSMVRPISLPDASHVFPAGKAIWVTGWGHTQYGGTHALILQKGEIRVINQTTCENLLPQLITPRMMCVGFLSGGVDSCDGDSGGPLSSVEADGRIFQAGVVSWGDGCAQRNKPGVYTRLPLFRDWIKENTGV | 2.85

# ---- query binder ----
May I ask what EC50 of hC3 cleavage has been recorded for MTSP-1 Q38R/I41S/D60bH/F60eV/F97T/ins97aE/T98G/F99L/C122S/Q175L/Q192E (enzyme) VVGGTDADEGEWPWQVSLHALGRGHSCGASLISPNWLVSAAHCYIDHRGVRYSDPTQWTAFLGLHDQSQRSAPGVQERRLKRIISHPFFNDTEGLDYDIALLELEKPAEYSSMVRPISLPDASHVFPAGKAIWVTGWGHTQYGGTGALILQKGEIRVINQTTCENLLPQLITPRMMCVGFLSGGVDSCEGDSGGPLSSVEADGRIFQAGVVSWGDGCAQRNKPGVYTRLPLFRDWIKENTGV ?
35.2

These measurements were taken from patent US20240018502A1.
